experiment description: Liver Microsome Stability Assay (human)
stated conditions: human liver microsomes, with NADPH, 1.0 uM compound
# class assignment by measured Liver Microsome Stability (Multiple Species): Human - % Remaining after 30 min w/NADPH: bin 1 = under 1%, bin 2 = from 1% up to 40%, bin 3 = 40% and over

>>> df
                                   molecule  qualitative_label
0  Cc1cc(C(=O)Nc2nc(/C=C/c3cn(C(C)C)cn3)cs2)n(Cc2ccnc(F)c2)c1              bin 2
1  O=C(Nc1nc([C@H]2CCCN2c2ccc(OC(F)(F)F)cc2)cs1)c1cccn1CC1CCOCC1              bin 3
2  O=C(Nc1nc([C@H]2CCN(c3ccccn3)C2)cs1)c1cccn1Cc1ccncc1              bin 1
3  CC(=O)N1CCCCC1c1ccc(N2CCC[C@@H]2c2csc(NC(=O)c3cccn3Cc3ccncc3)n2)cc1 (stereo partly shown)              bin 1

stdin: Determine which band this molecule sits in: `CC(C)OC(=O)Nc1ccc(N2CCC[C@@H]2c2csc(NC(=O)c3cccn3Cc3ccnc(F)c3)n2)cc1`
stdout: bin 3

stdin: Determine which band this molecule sits in: O=C(Nc1nc([C@H]2CCCN2c2ccccc2)cs1)c1cccn1CC1CCOC1 (stereo partly shown)
stdout: bin 2

stdin: Determine which band this molecule sits in: `O=C(Nc1nc([C@H]2CCCN2c2ccc(OC3CS(=O)(=O)C3)cc2)cs1)c1cccn1Cc1ccnc(F)c1`
stdout: bin 2

stdin: Determine which band this molecule sits in: `NC(=O)N1CCC(Oc2ccc(N3CCC[C@@H]3c3csc(NC(=O)c4cccn4Cc4ccnc(F)c4)n3)cc2)CC1`
stdout: bin 3

stdin: Determine which band this molecule sits in: `COCCn1cnc(/C=C/c2csc(NC(=O)c3cccn3Cc3ccncc3)n2)c1`
stdout: bin 1

stdin: Determine which band this molecule sits in: `C#CCn1cccc1C(=O)Nc1nc([C@H]2CCCN2c2ccccc2)cs1`
stdout: bin 3

stdin: Determine which band this molecule sits in: `Cc1cnccc1Cn1cccc1C(=O)Nc1nc([C@H]2CCCN2c2ccccc2)cs1`
stdout: bin 2

stdin: Determine which band this molecule sits in: `C#CCCCn1cccc1C(=O)Nc1nc([C@H]2CCCN2c2ccccc2)cs1`
stdout: bin 3

* * *

Tested on: multiple myeloma cell line NCI-H929
experiment description: H929 Cell Viability Assay
Assay type: cell-based, human
stated conditions: Homo sapiens, NCI-H929, 48 h, NCI-H929 cells, Celltiter-Glo
measure name: EC50 (µM)
Numbers only, in µM.

Some entries whose results are on file:
>>> print(df.to_string())
                                   compound  unit_tag  reported_value
0  CC(=O)N1CCC(O[C@@H]2C[C@H](c3csc(NC(=O)c4cccn4Cc4ccncc4)n3)N(c3ccccc3)C2)CC1 [Compound E40]        µM            6.73
1  CCn1cnc(/C=C/c2csc(NC(=O)c3cccn3Cc3ccnc(F)c3)n2)c1 [Compound B65]        µM            24.5

stdin: Which EC50 reading was recorded for the compound CN1CC(OC(=O)Nc2ccc(N3CCC[C@@H]3c3csc(NC(=O)c4cccn4Cc4ccnc(F)c4)n3)cc2)C1 [Compound A173] ?
stdout: 0.842

* * *

I'd be grateful if you could share measured Liver Microsome Stability (Multiple Species): Monkey - % Remaining after 30 min w/NADPH for these entries.
experiment description: Liver Microsome Stability Assay (monkey)
stated conditions: monkey liver microsomes, with NADPH, 1.0 uM compound
Give bare numbers, in %.

Some entries whose results are on file:
>>> df
                                   compound  unit_tag  reported_value
0  C[C@@H](N)c1ccc(N2CCC[C@@H]2c2csc(NC(=O)c3cccn3Cc3ccncc3)n2)cc1         %            40.4
1  O=C(Nc1nc([C@H]2CCCN2c2ccc(C3(O)CCC3)cc2)cs1)c1cccn1Cc1ccnc(F)c1         %            0.43
2  CC(=O)N1CCC(Oc2ccc(N3CCC[C@@H]3c3csc(NC(=O)c4cccn4CC4CCOCC4)n3)cc2)CC1         %            12.9
3  N#CC1CC1Cn1cccc1C(=O)Nc1nc([C@H]2CCCN2c2ccccc2)cs1 (stereo partly shown)         %            7.86
4  CC(CC(N)=O)n1cnc(/C=C/c2csc(NC(=O)c3cccn3Cc3ccnc(F)c3)n2)c1 (stereo not shown)         %            5.79

Below is a list of compounds. For each, state its recorded Liver Microsome Stability (Multiple Species): Monkey - % Remaining after 30 min w/NADPH.
1. CC(=O)Nc1ccc(N2CCC[C@@H]2c2csc(NC(=O)c3cccn3Cc3cc(F)nc(F)c3)n2)cc1
2. O=C(Nc1ccc(N2CCC[C@@H]2c2csc(NC(=O)c3cccn3Cc3ccnc(F)c3)n2)cc1)O[C@@H]1CCOC1
3. CCc1ccc(N2CCC[C@@H]2c2csc(NC(=O)c3cccn3Cc3ccncc3)n2)nc1
4. CNC(=O)c1ccc(N2CCC[C@@H]2c2csc(NC(=O)c3cccn3Cc3ccncc3)n2)cc1
5. CC(=O)N1CCOC(/C=C/c2csc(NC(=O)c3cccn3Cc3ccncc3)n2)C1 (stereo not shown)
6. CC(C)c1ccc(/C=C/c2csc(NC(=O)c3cccn3Cc3cccnc3)n2)nc1
7. CC(CC#N)n1cnc(/C=C/c2csc(NC(=O)c3cccn3Cc3ccnc(F)c3)n2)c1 (stereo not shown)

stdout:
27.3
28.5
0.13
0.22
0.1
0.35
0.51
